# EXPERIMENTAL_TARGET: Polyadenylate-binding protein 1 (Homo sapiens)
# Sequence (P11940 whole entry): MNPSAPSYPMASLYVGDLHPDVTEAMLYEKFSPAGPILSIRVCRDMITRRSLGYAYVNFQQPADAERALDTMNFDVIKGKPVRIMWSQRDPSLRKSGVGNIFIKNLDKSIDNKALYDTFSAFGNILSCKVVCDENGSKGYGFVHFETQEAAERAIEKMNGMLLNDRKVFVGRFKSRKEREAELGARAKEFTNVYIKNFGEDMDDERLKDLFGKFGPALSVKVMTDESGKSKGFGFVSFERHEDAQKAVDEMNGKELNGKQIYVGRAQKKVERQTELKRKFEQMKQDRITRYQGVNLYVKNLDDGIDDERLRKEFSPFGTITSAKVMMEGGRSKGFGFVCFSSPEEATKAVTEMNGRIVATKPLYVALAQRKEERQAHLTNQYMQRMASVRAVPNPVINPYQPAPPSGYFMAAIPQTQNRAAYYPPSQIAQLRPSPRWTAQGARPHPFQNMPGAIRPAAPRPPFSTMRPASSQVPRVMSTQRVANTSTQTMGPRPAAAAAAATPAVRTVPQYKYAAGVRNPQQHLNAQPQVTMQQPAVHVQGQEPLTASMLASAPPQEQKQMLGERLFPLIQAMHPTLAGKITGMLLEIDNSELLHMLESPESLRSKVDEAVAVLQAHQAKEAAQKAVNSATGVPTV
# EXPERIMENT_NOTES: MLLE binding blockers, Cy5 peptide tracer – biochemical, fluorescence polarization, Cy5-PAM2 peptide, secondary, miRNA deadenylation inhibitor project, dose response (AID 602260)
# Type: functional
# TEST_CONTEXT: read-out: IC50_Mean
Activity calls are given as the source filed them.

| MOLECULE | IC50 |
| --- | --- |
| CCN1C(=O)/C(=C2/SC(C)=C(C)N2CC)SC1=S | > 66 µM (inactive) |
| COc1cc(/C=C2/SC(NS(=O)(=O)c3ccccc3)=NC2=O)c([N+](=O)[O-])cc1OC | > 66 µM (inactive) |
| C=CCNC(=S)NS(=O)(=O)c1cccs1 | > 66 µM (inactive) |
| Cc1cccc(NC(=S)NC(=O)c2cccs2)n1 | > 66 µM (inactive) |
| O=C(NC(=S)Nc1ccc(S(=O)(=O)N2CCCC2)cc1)c1cccs1 | > 66 µM (inactive) |
| Cc1ccc(C(c2cc(Cl)c3cccnc3c2O)N2CCN(C)CC2)cc1 (stereo not drawn) | > 66 µM (inactive) |
| CCOC(=O)c1c(CSc2ccc(C)cc2)n(C)c2cc(Br)c(O)c(CN(C)C)c12 | > 66 µM (inactive) |
| COc1ccc(O)c(/C=N/NC(=S)Nc2cccnc2)c1 | > 66 µM (inactive) |
| COc1cc(C(CC(=O)N2CCCC2)c2c(OC)cc(OC)c3ccc(=O)oc23)cc(OC)c1OC (stereo not drawn) | > 66 µM (inactive) |
| O=C(O)c1cccc(NC(=S)NC(=O)c2ccncc2)c1 | > 66 µM (inactive) |
| CC(C)C1=C2CCCCC2NC(=O)N1 (stereo not drawn) | > 66 µM (inactive) |
| N#CCSc1nnc(CNc2ccc(F)cc2)o1 | > 66 µM (inactive) |
| O=[N+]([O-])c1cccc(C(=S)N2CCN(c3ccc(F)cc3)CC2)c1 | > 66 µM (inactive) |

----------
# EXPERIMENTAL_TARGET: Histone-lysine N-methyltransferase NSD2 (Homo sapiens)
# Sequence (O96028 whole entry): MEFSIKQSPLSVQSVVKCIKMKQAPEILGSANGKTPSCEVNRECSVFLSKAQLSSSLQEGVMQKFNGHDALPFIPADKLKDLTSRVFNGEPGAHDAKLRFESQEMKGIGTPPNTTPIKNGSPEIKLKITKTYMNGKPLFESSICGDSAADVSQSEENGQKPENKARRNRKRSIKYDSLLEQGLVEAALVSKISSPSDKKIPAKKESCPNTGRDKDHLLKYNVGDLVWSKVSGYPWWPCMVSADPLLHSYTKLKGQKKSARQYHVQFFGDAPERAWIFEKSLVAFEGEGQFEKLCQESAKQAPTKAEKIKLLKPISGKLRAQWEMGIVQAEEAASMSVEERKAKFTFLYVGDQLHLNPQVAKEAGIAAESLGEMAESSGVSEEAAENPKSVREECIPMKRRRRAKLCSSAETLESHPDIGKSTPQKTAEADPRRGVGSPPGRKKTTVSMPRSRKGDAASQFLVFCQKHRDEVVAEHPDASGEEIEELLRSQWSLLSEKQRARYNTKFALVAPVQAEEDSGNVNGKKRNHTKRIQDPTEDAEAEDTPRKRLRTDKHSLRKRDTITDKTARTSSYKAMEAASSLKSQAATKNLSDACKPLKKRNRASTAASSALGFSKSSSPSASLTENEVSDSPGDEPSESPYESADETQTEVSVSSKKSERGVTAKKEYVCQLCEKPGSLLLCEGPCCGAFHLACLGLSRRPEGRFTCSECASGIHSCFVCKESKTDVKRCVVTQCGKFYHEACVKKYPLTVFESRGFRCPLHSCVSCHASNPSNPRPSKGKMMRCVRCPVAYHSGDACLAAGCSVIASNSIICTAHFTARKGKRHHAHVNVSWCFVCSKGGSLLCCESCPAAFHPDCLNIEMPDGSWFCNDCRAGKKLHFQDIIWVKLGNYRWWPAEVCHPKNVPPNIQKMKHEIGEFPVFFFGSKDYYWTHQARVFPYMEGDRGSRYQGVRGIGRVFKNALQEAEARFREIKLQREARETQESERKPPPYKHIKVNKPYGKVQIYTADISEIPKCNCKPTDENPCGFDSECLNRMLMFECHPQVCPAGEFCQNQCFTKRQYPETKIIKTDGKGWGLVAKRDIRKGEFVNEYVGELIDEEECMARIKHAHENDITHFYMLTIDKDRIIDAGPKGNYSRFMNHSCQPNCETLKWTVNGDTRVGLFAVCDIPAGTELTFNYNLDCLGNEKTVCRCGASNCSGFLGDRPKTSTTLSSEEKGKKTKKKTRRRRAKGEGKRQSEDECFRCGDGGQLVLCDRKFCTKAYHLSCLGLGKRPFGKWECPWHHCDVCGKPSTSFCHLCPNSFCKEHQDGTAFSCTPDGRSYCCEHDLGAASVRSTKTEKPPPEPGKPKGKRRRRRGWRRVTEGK
# Format: biochemical
The source made the active and inactive calls.
Outcomes: active, inactive

| SMILES_STR | DISCRETE_LABEL |
| --- | --- |
| Cc1ccc(S(=O)(=O)/N=C2\C=C(Nc3cccc(C(=O)O)c3)C(=O)c3ccccc32)cc1 | active |
| CCCCNC(=O)c1c(N)n(CCCOC)c2nc3ccccc3nc12 | active |
| Cc1ccc(C(=O)NC2(O)C(=O)c3ccccc3C2=O)cc1C | active |
| CCCCn1c(NS(=O)(=O)c2ccc(C)cc2)c(S(=O)(=O)c2ccccc2)c2nc3ccccc3nc21 | active |
| Cc1cccnc1Nc1nc(-c2ccc(O)c(O)c2)cs1 | inactive |
| O=C1C(NS(=O)(=O)c2ccc(Br)cc2)=C(N2CCCCC2)C(=O)c2ccccc21 | active |
| CC1=NN(c2cccc(C(=O)O)c2)C(=O)/C1=C\C=C\c1ccco1 | active |
